target: T1, AAV9 (adeno-associated virus serotype 9); assay: SPR, AAV on CM5 chip;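 further: surface plasmon resonance with AAV amine-coupled to the chip as ligand, nanobodies injected as analyte over a concentration series, rate constants and affinity fitted from binding curves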
T1 construct: also called adeno-associated virus serotype 9
EXPERIMENTAL_ENDPOINT: kon (M⁻¹ s⁻¹)
Numbers only, in M⁻¹ s⁻¹.

# BINDER, UNIT_INFO, RECORDED_MEASUREMENT
records = [
    ("A4-110 (VHH) VHH: VQLQESGGGLVQPGGSLRLSCFASGTNFSINVVGWYRQAPGKQRELVATITRGGSTNYAESVKGRFTISRDNAKNTVYLQMNNLRPEDTAVYYCHLDEVRDSSWTTSNLWGQGTQVTVSS", "M⁻¹ s⁻¹", 4040),
]

Attention now turns to another entry.
Query: I have this binder here, A4-102 (VHH) VHH: VQLQESGGGLVQPGGSLRLSCAASGSHFTINSVGWYRQAPGKQRELVAPVTRGGTTNYADFVKGRFTISRDNAKNTVYLQMNSLRPEDTAVYYCHVDELRDSSWTTSNLWGQGTQVTVSS , and I need its recorded kon.
Reply: 151000
